melting point reference

// solved cases for melting point follow
Molecule	Quantity name	Observed result
CC1=CC(C)(C)c2ccc(Oc3ccc([N+](=O)[O-])cc3)cc2O1	melting point	80 °C
N#Cc1cnc2c(c1Nc1ccc(Oc3ccccc3)cc1)C=C1N=CN=C1C2	melting point	> 270 °C
CC(=O)c1cc(Cl)sc1SCc1ccccc1	melting point	86 to 88 °C
COC(=O)C(C(=O)OC)C(Cc1cc(Cl)ccc1N)c1ccc(OC)cc1 (stereo not given)	melting point	114 to 116 °C
Fc1ccc(Nc2nc(NCc3ccc(Cl)nc3)nc(NN=Cc3ccc(OC(F)(F)F)cc3)n2)cc1C(F)(F)F	melting point	117 to 125 °C

What measured melting point goes with `O=C1NCCN1c1ccc(S(=O)(=O)Nc2ccccc2)cc1` ? 262 to 264 °C

====

Quantity name: melting point

Molecule	Observed result
CCOC(=O)Cc1csc(NC(=O)c2ccc(F)cc2)n1	110 to 112 °C

Return reported melting point; argument: `O=C(O)COc1ccc(SCc2cccc(OCc3ccc(C(F)(F)F)cc3)c2)c2c1CCCO2` 113 to 115 °C

Now try `COc1ccnc(CCc2nc3cccnc3[nH]2)c1` . 116 to 117 °C

Next molecule up: CC1=CCN(C)C2C1N2C#N (stereo not given) 117 °C

Next entry: O=C(NC[C@@H]1CN2C(=O)C[C@H]2O1)c1cc(F)ccc1F (racemic) 88.8 to 90.7 °C

Same read-out for Oc1cc2c(cc1CCCOc1ccccc1)OC(CCc1ccccc1)C2 (stereo not given) ? 65 to 70 °C

And the next one, CC1SC(=NO)C(C)(C)NC1=O (stereo not given) ? 199 to 202 °C

Here is the next molecule: CC(=O)NCC1CN(c2ccc(N3CCN(c4nc5cc(F)ccc5o4)CC3)c(F)c2)C(=O)O1 (stereo not given) 226 to 228 °C

Similarly, O=c1[nH]c(=O)n(C2CC(OCc3cccc(Cl)c3)C(CO)O2)cc1F (stereo not given) ? 153 to 155 °C

Param item: `Cc1c(-c2ccc(OC(C)C)cc2)n(Cc2ccc(OCCN3CCCCC3)cc2)c2ccc(O)cc12` 120 to 125 °C

====

Catalogue of melting point readings, one per entry.

Compound	melting point
O=S(=O)(NCCc1cccc(CCNS(=O)(=O)c2ccc(Cl)cc2)c1)c1ccc(Cl)cc1	135 to 136 °C
CCCCCCC(CCCCCC)N1C(=O)c2ccc3c4cccc5c(NC(C)=O)ccc(c6ccc(c2c36)C1=O)c54	> 230 °C

Give the measured melting point of CC(C)(C)c1cc(C(O)COc2ccc(C(=O)O)c(O)c2)cc(C(C)(C)C)c1O (centres undefined) . 132 to 133 °C

Would you mind doing `CS(=O)(=O)c1ccc(-c2sc(Nc3ccc(C#N)cc3)nc2-c2ccc(F)cc2)cc1` as well? 273 to 274 °C

Also check `Cc1cccc(-n2nc(C)cc2N)n1` 149 to 150 °C

// repeat for `CC(C)c1cc(C(=O)O)cs1` and report 64 to 67 °C

Next: C=CCNC(=O)NCC1Cc2ccc(-c3ccc(=O)[nH]n3)cc2C1 (centres undefined) 208 to 209 °C

Now consider COc1cc(OC)nc(NC(=O)NS(=O)(=O)Nc2ccccc2C(O)C2CC2)n1 (centres undefined) and answer again. 66 to 69 °C
